Test system: NCI-H23 lung
Assay: NCI-60 one-dose screen, 48 h
Conditions: 10 µM unless noted
Compounds without any hit were thinned out: in the full panel of roughly 83,000, 20% have a hit. The source made the active and inactive calls. How the source made its calls: active means growth percent below 10; inactive means the rest.
Labels: 1 = active, -1 = inactive

* Cc1nc(Cl)cc(N(c2cc(Cl)nc(C)n2)c2ncc(C(=O)Nc3c(C)cccc3Cl)s2)n1 | -1
* COc1ccc2nc3ccccc3c(NCCNCCO)c2c1 | 1
* C[C@H]1[C@H](C)CC[C@]2(C(=O)O)CC[C@]3(C)C(=CC[C@@H]4[C@@]5(C)C/C(=C/c6ccco6)C(=O)C(C)(C)[C@@H]5CC[C@]43C)[C@H]12 | 1
* Cc1ccc(-c2cc(O)c(-c3ccc(C)cc3C)cc2O)c(C)c1 | -1
* C=C(C)[C@@H]1CC[C@]2(COCCC#N)CC[C@]3(C)[C@H](CC[C@@H]4[C@@](C)(CCCNCCC#N)[C@H](C(=C)C)CC[C@]43C)[C@@H]12 | -1
* O=C(COc1cccc(/C=C2\Oc3ccccc3C2=O)c1)c1ccc([N+](=O)[O-])cc1 | -1
* O=C1CN(Cc2ccc(C(=O)NO)cc2)C(=O)[C@@H](Cc2ccccc2)N1 | -1
* Fc1cc2[nH]ncc2c2c3c(c(-c4cn[nH]c4)nc12)CCCC3 | 1
* CCOC(=O)c1nn(C2CCCCO2)c2ccc(NC(=O)CSc3nc4ccccc4c(=O)[nH]3)cc12 (configuration not stated) | -1
* Oc1cc(Nc2ccnc3cc(Cl)ccc23)c2ncccc2c1 | -1
* CC(C)=CC/C=C(/C)[C@H]1CC[C@]2(C)[C@@H]1CC[C@@H]1[C@@]3(C)CCCNC(C)(C)[C@@H]3CC[C@]12C | 1
* Oc1ccc(N=Nc2nccs2)c(O)c1 | -1
* CCCCCCNC(=O)Nc1ncnc2c1ncn2-c1ccccc1 | -1
* Clc1ccc(/C=N/Nc2nc3ccccc3s2)c(Cl)c1 | -1
* Clc1ccccc1/C=N\Nc1ccccn1 | -1
* CCOC(=O)n1cc(C2=C(c3ccc(OC)c(OC)c3)COC2=O)c2ccccc21 | -1
* O=C1Nc2ccccc2/C1=C/C(=O)c1ccc(N2CCOCC2)cc1 | -1
* C=C(CC(=O)OC)C(C)=O | -1
* COc1cc(-c2nc(SCCC(C)C)nc(Nc3ccccc3)c2C#N)cc(OC)c1OC | -1
* C[C@H]1[C@H](C)CC[C@]2(COC(=O)CCC(=O)O)CC[C@]3(C)C(=CC[C@@H]4[C@@]5(C)CCCNC(C)(C)[C@@H]5CC[C@]43C)[C@H]12 | -1
* CC1(C)CC(=O)c2c(ccc(C(=O)C[C@@H](N)CO)c2N)O1 | -1
* Cc1cc(C)nc(SCC(=O)Nc2cccc(N=Cc3ccccc3O)c2)n1 | -1
* CCCc1cc2cc(-n3nc(C)c4c3CC(C)(C)CC4=O)cc(NC3CCSCC3)c2c(=O)[nH]1 | -1
* CCN=C1C=CC(=C(c2ccc(N(CC)CC)cc2)c2ccc(N(CC)CC)cc2)c2ccccc21 | 1
* C=CCCCCOc1ccccc1-c1cnc(OCCCCC=C)n1C | -1
* CCOC(=O)c1c[nH]c2cc(OCC3CC3)c(OCC3CC3)cc2c1=O | -1
* Cn1cc(-c2noc(-c3cn(C)c4ncc(F)cc34)n2)c2cc(Br)ccc21 | -1
* O=C(Nc1ccccc1)Nc1ccc(C(=O)/C=C/c2ccc(N3CCCC3)cc2)cc1 | -1
* COc1cc2c(c(Br)c1N)-c1cc(Br)c(N)cc1C2=O | -1
* C[C@@H](NC(=O)[C@@H](CC(=O)N1CCC(N2CCCCC2)CC1)N1C(=O)[C@@H](N2C(=O)OC[C@@H]2c2ccccc2)[C@H]1/C=C/c1cccc(Cl)c1)c1ccccc1 | -1
* O=C(N=c1n(-c2ccccc2)nc2n1CCN2C1=NCCN1C(=O)c1ccc(Cl)cc1)c1ccc(Cl)cc1 | -1
* COc1cc(C(=O)/C=C/c2c(-c3ccc(F)cc3)nc3sccn23)cc(OC)c1OC | -1
* O=C(Nc1cc(-c2cccnc2)nc(NCCCN2CCOCC2)n1)c1cc(Br)cc(C(F)(F)F)c1 | -1
* NS(=O)(=O)c1ccc(CCN2C(=O)/C(=C\c3ccccc3)C=C2c2ccc(Cl)cc2)cc1 | -1
* C=C(C)[C@@H]1CC[C@]2(C(=O)O)CC[C@]3(C)[C@H](CC[C@@H]4[C@@]5(C)C/C(=C/c6ccco6)C(=O)C(C)(C)[C@@H]5CC[C@]43C)[C@@H]12 | 1
* COc1ncc(-c2ccc3nccc(C#CCCCCC(=O)NO)c3c2)cc1NS(=O)(=O)c1ccc(F)cc1F | -1
* C#CCNC(=O)CC[C@@H](C)[C@H]1CC[C@H]2[C@@H]3CC[C@@H]4CC(=O)CC[C@]4(C)[C@H]3CC[C@]12C | 1

These measurements were taken from PubChem BioAssay (NCI).
